Assay: Selectivity ratio of Ki for rat D2 dopamine receptor to Ki for human D1 dopamine receptor
Reported Metric: Ratio Ki

1. CN1CCc2cc(SCCN)cc3c2[C@H]1Cc1ccc(O)c(O)c1-3 135
2. CN1CCc2c3c(cc4c2[C@H]1Cc1ccc(O)c(O)c1-4)SCCC3=O 0.3
3. CN1CCc2cc(Sc3ccccc3)cc3c2[C@H]1Cc1ccc(O)c(O)c1-3 47
4. COC(=O)[C@@H](N)CSc1cc2c3c(c1)-c1c(ccc(O)c1O)C[C@H]3N(C)CC2 38
5. CN1CCc2cc(SCCC(=O)O)cc3c2[C@H]1Cc1ccc(O)c(O)c1-3 0.4

###

Molecular target: D(2) dopamine receptor (Rattus norvegicus, UniProt P61169)
Sequence (P61169 whole entry): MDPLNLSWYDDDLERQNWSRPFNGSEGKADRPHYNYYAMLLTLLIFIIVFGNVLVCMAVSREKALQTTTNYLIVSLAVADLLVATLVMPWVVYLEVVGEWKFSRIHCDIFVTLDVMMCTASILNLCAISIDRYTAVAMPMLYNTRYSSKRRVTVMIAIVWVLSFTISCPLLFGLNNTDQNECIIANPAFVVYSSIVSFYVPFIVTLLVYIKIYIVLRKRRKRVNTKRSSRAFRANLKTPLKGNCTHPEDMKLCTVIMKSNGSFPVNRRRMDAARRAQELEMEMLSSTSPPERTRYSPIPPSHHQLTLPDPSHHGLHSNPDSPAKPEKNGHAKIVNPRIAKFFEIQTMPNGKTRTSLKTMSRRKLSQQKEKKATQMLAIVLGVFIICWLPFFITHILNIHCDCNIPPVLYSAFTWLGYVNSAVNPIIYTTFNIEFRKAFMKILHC
Assay: Displacement of [3H]raclopride from rat D2 dopamine receptor expressed in CHOK1 cells after 90 mins by liquid scintillation counter scintillation counter
Mark fulfilled only when Ki stays strictly below 400 nM. Values equal to the cut-off are not fulfilled.

1) CN1CCc2cc(Sc3ccccc3)cc3c2[C@H]1Cc1ccc(O)c(O)c1-3 not fulfilled
2) CN1CCc2cc(SCCN)cc3c2[C@H]1Cc1ccc(O)c(O)c1-3 fulfilled
3) COC(=O)[C@@H](N)CSc1cc2c3c(c1)-c1c(ccc(O)c1O)C[C@H]3N(C)CC2 fulfilled
4) CN1CCc2c3c(cc4c2[C@H]1Cc1ccc(O)c(O)c1-4)SCCC3=O not fulfilled

###

Molecular target: D(2) dopamine receptor (Rattus norvegicus, UniProt P61169)
Assay: Agonist activity at rat D2 dopamine receptor expressed in CHOK1 cells assessed as [35S]GTPgammaS binding after 90 mins by liquid scintillation counter
pEC50: −log10 of the molar value.
Catalogue of molecules with associated pEC50
Reported Metric: pEC50

1. CN1CCc2c3c(cc4c2[C@H]1Cc1ccc(O)c(O)c1-4)SCCC3=O 6.42
2. CN1CCc2cc(SCCN)cc3c2[C@H]1Cc1ccc(O)c(O)c1-3 7.80
3. CN1CCc2cc(SCCC(=O)O)cc3c2[C@H]1Cc1ccc(O)c(O)c1-3 6.83
4. COC(=O)[C@@H](N)CSc1cc2c3c(c1)-c1c(ccc(O)c1O)C[C@H]3N(C)CC2 7.62
5. CN1CCc2cc(Sc3ccccc3)cc3c2[C@H]1Cc1ccc(O)c(O)c1-3 6.09

###

Molecular target: D(1A) dopamine receptor (Homo sapiens)
Sequence (P21728 whole entry): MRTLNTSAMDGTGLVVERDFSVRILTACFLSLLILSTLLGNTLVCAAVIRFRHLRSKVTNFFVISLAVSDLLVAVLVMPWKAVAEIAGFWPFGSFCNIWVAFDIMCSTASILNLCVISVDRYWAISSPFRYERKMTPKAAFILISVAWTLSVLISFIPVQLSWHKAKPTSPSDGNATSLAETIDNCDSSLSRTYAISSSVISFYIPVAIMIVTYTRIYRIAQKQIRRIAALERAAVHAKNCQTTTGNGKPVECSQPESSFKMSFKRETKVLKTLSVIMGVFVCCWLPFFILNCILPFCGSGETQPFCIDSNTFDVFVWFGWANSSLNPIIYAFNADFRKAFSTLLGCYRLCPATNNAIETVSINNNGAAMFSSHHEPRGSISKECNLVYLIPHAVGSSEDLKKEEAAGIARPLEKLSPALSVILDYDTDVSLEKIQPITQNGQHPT
Experiment: Displacement of [3H]SCH23390 from human D1 dopamine receptor expressed in Ltk fibroblast cells after 60 mins by liquid scintillation counter
Reported Metric: log10(Ki) (log10 of the value in nM)

1) CN1CCc2cc(SCCC(=O)O)cc3c2[C@H]1Cc1ccc(O)c(O)c1-3 2.18
2) CN1CCc2c3c(cc4c2[C@H]1Cc1ccc(O)c(O)c1-4)SCCC3=O 2.15
3) CN1CCc2cc(SC[C@@H](N)C(=O)O)cc3c2[C@H]1Cc1ccc(O)c(O)c1-3 2.15
4) CN1CCc2cc(Sc3ccccc3)cc3c2[C@H]1Cc1ccc(O)c(O)c1-3 3.34
5) COC(=O)[C@@H](N)CSc1cc2c3c(c1)-c1c(ccc(O)c1O)C[C@H]3N(C)CC2 2.58
6) CN1CCc2cc(SCCN)cc3c2[C@H]1Cc1ccc(O)c(O)c1-3 3.11
7) CN1CCc2cc(SC[C@H](N)C(=O)O)cc3c2[C@H]1Cc1ccc(O)c(O)c1-3 3.62

Source: ChEMBL document CHEMBL1799928
